Measured pKi on Histamine H3 receptor (Rattus norvegicus, UniProt Q9QYN8) follows.
Sequence (Q9QYN8 whole entry): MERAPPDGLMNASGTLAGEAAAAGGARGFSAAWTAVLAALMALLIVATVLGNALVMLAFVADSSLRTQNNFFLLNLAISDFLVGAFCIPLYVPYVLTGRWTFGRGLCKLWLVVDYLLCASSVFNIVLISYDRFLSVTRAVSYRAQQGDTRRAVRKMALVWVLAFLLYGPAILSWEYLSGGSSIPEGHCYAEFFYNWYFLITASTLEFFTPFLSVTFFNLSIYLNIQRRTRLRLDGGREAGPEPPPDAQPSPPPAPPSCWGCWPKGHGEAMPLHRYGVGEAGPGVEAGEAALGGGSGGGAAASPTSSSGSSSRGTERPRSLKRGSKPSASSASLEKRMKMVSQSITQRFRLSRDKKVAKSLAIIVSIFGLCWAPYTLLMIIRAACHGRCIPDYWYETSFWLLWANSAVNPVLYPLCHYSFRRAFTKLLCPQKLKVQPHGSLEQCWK
Answers are plain numbers, as −log10 of the molar value.

Examples with answers:
Enquiry: Fetch value of pKi on Histamine H3 receptor (Rattus norvegicus, UniProt Q9QYN8) for C[C@@H]1CCCN1CCN1CCc2cc(-c3ccc(C#N)cc3)ccc2C1=O .
Return: 8.24

Enquiry: Look up Histamine H3 receptor (Rattus norvegicus, UniProt Q9QYN8) data: pKi of O=C1c2ccc(-c3cccc(F)c3)cc2CCN1CCN1CCCC1 , then report it.
Return: 6.79

Enquiry: Name the recorded pKi of C[C@H]1CCCN1CCN1CCc2cc(-c3ccc(C#N)cc3)ccc2C1=O , assay system Histamine H3 receptor (Rattus norvegicus, UniProt Q9QYN8).
Return: 7.31

Enquiry: State, for Histamine H3 receptor (Rattus norvegicus, UniProt Q9QYN8), measured pKi of the compound listed here: O=C1c2ccc(-c3cc(F)cc(F)c3)cc2CCN1CCN1CCCC1
Return: 6.84

Enquiry: Jot down pKi (Histamine H3 receptor (Rattus norvegicus, UniProt Q9QYN8)) of N#Cc1ccc(-c2ccc3c(c2)CCN(CCN2CCCC2)C3=O)cc1 .
Return: 7.60

***
Enquiry: Give reported pKi for O=C1c2ccc(-c3ccccc3)cc2CCN1CCN1CCCC1 (Histamine H3 receptor (Rattus norvegicus, UniProt Q9QYN8))
Return: 6.84

----------
Assay: Clearance in Long Evans rat at 2 mg/kg, iv administered as single bolus dose
Type: ADME, organism-based
Parameters: dose 2 mg/kg, route intravenous
Conditions: in vivo
parameter_measured: clearance (mL/min/kg)
One number for each entry, in mL/min/kg.

Enquiry: Look up clearance of CN(C)C(=O)c1ccc(-c2ccc3c(c2)CCN(CCN2CCCC2)C3=O)cc1.Cl and report it.
Return: 87

----------
A short record of Ki observed with Histamine H1 receptor (Homo sapiens, UniProt P35367) follows.
Sequence (P35367 whole entry): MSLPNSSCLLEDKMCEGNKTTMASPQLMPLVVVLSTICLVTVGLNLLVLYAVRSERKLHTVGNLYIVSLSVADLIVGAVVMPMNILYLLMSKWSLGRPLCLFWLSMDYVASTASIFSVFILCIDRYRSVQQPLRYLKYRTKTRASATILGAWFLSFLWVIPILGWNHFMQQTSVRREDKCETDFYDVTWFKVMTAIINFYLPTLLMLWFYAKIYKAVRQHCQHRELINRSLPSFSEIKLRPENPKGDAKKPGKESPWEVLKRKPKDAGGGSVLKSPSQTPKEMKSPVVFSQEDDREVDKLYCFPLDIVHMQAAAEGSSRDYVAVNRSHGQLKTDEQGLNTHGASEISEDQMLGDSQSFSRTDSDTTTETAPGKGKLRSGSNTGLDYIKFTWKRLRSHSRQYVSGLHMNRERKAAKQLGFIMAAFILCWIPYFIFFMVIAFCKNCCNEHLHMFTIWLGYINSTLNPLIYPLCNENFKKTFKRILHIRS

Enquiry: Specify measured Ki for C[C@@H]1CCCN1C(=O)c1ccc(-c2ccc3c(c2)CCN(CCN2CCCC2)C3=O)cc1 .
Return: > 10 µM

Dear colleague, could you please provide Ki for the compounds listed below?
1. C[C@H]1CCCN1C(=O)c1ccc(-c2ccc3c(c2)CCN(CCN2CCCC2)C3=O)cc1
2. CN(C)C(=O)c1ccc(-c2ccc3c(c2)CCN(CCN2CCCC2)C3=O)cc1

Return:
["7.01 µM", "> 10 µM"]

----------
Experiment: Apparent permeability from apical to basolateral side of human Caco2 cells
Format: ADME, cell-based
Details: Caco-2
parameter_measured: Papp A→B (×10⁻⁶ cm/s)
Numbers only, in ×10⁻⁶ cm/s.

Enquiry: Annotate the compound CN(C)C(=O)c1ccc(-c2ccc3c(c2)CCN(CCN2CCCC2)C3=O)cc1 with its measured Papp A→B.
Return: 12.1

----------
Biological target: 5-hydroxytryptamine receptor 6 (Homo sapiens)
Sequence (P50406 whole entry): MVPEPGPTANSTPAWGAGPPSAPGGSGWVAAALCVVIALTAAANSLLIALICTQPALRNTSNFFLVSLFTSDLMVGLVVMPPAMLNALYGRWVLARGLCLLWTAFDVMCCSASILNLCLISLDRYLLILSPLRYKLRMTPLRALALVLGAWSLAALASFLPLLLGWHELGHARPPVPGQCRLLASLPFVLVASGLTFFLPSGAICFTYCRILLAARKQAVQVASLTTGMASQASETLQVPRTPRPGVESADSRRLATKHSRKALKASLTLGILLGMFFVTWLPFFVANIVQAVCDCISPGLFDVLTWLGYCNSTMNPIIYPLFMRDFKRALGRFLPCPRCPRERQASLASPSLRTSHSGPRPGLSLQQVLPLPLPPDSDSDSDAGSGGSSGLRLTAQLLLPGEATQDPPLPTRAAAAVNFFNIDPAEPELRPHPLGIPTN
pKi: −log10 of the molar value.
parameter_measured: pKi

Enquiry: Please list pKi recorded for the molecule C[C@@H]1CCCN1CCN1CCc2cc(-c3ccc(C(=O)N4CCCC4)cc3)ccc2C1=O
Return: < 5.00

Enquiry: Please indicate pKi recorded for CN(C)C(=O)c1ccc(-c2ccc3c(c2)CCN(CCN2CCCC2)C3=O)cc1
Return: < 5.00

Here's the next entry for you.
Enquiry: Give recorded pKi. C[C@@H]1CCCN1C(=O)c1ccc(-c2ccc3c(c2)CCN(CCN2CCCC2)C3=O)cc1
Return: < 5.00

Hey, just so you know, these numbers are from ChEMBL document CHEMBL2029265.
